Assay: gradient 5% acetonitrile 3 min, to 50% in 2 min, to 85% in 15 min, held 3 min, 100 µL/min
Details: column: Zorbax Extend-C18 2.1 x 50 mm; eluents: water / acetonitrile, 0.1% formic acid
measured.property: RP-LC retention time (s)
Value expressed in s; do not type the unit.

Incoming: For `CNS(=O)(=O)c1cccnc1Nc1ccc(F)cc1` , write its RP-LC retention time.
Outgoing: 863

Incoming: Give the reported value of RP-LC retention time for this record: O=C1CC(/C=C/c2ccccc2)Cc2nc(N3CCN(c4ncccn4)CC3)ncc21 (centres undefined)
Outgoing: 1130

Incoming: Please list RP-LC retention time recorded for the compound Cc1noc(C2CN(C(=O)Nc3ccc(F)c(Cl)c3)CC23CCOCC3)n1 (centres undefined)
Outgoing: 783

Incoming: Identify RP-LC retention time associated with the compound `Cc1ccc(Nc2ccc(N)cc2S(=O)(=O)O)cc1`
Outgoing: 652

Incoming: Provide RP-LC retention time value for the following compound: `CC(C)n1cnc2cc(CNC(=O)Cc3cccc(C(F)(F)F)c3)ccc21`
Outgoing: 680

Incoming: Look up RP-LC retention time of CCN1CCCCc2cc(C(=O)NCC3CCN(CC(C)C)C3)sc21 (centres undefined) and report it.
Outgoing: 718

Incoming: Return reported RP-LC retention time. Input compound: Cc1ccc(-c2nc(C3CC(=O)N(c4ccc(C)cc4)C3)no2)cc1 (centres undefined)
Outgoing: 1080

Incoming: Tell me measured RP-LC retention time for `COc1ccccc1-c1nc(Cn2nnc(-c3nc(-c4cccc(OC)c4OC)no3)c2C)c(C)o1` please.
Outgoing: 1050

Incoming: Write down RP-LC retention time measured for item `Cc1cc(C)n(-c2nc(CC(=O)N3CCN(c4ccccc4)CC3)cs2)n1`
Outgoing: 947

Incoming: Identify the reported RP-LC retention time for the following entry. `Cc1ccccc1-c1noc(CN2C(=O)COc3ccc(Cl)cc32)n1`
Outgoing: 1120

Incoming: Supply measured RP-LC retention time of `CCOc1ccccc1NC(=O)C1CCN(S(=O)(=O)c2ccc3[nH]c(=O)sc3c2)CC1` in your reply.
Outgoing: 870

Incoming: Assign RP-LC retention time to the following record: `CCc1cc(=O)n(CC(=O)Nc2ccc(Cl)c(Cl)c2)c(-n2nc(C)cc2C)n1`
Outgoing: 1060

Incoming: State its RP-LC retention time: `COc1ccc(-c2cn3c(CC(=O)N(Cc4cccs4)C4CCCC4)csc3n2)cc1OC`
Outgoing: 875

Incoming: Consider the compound `Cc1ccc(C)c2sc(OC3CCN(C(=O)c4ccc(S(C)(=O)=O)cc4)CC3)nc12` . State its measured RP-LC retention time.
Outgoing: 1000

Incoming: Give the reported value of RP-LC retention time for this record: Cc1ccc(S(=O)(=O)NCC2CN(C(C)C)CC23CCCCC3)c(C)c1 (centres undefined)
Outgoing: 738

Incoming: // Input: Cc1ccc(N2CC(c3noc(-c4cc(F)cc(F)c4)n3)CC2=O)cc1 (centres undefined) . Output its RP-LC retention time only.
Outgoing: 1060

Incoming: Read off the recorded RP-LC retention time for CC(Oc1ccccc1F)C(=O)Nc1ccc(-c2nc(-c3ccccc3)no2)cc1 (centres undefined)
Outgoing: 1260

Incoming: Please look at this compound and report its RP-LC retention time: `O=C(Cn1c(=O)c(S(=O)(=O)c2ccccc2)cc2ccccc21)NC1CCCC1`
Outgoing: 840

Incoming: Identify measured RP-LC retention time associated with `COCCNC(=O)c1c2c(cn(-c3ccc(Cl)cc3)c1=O)C(=O)CC(C)(C)C2`
Outgoing: 856
